system: TFEB; assay: TFEB nuclear translocation assay, HeLa wt cells; type: cell-based; details: Homo sapiens, HeLa, 2 h, 2 hrs compound treatment, Table 1 does not say HeLa wt or TRPML1 KO
Collected AC50 values appear next to each entry.

API: value(readout=AC50, system=TFEB) for record `COCC1(C)CCN(c2ccccc2NS(=O)(=O)Cc2ccc(C(F)F)cc2)CC1`
8.01 to 9.99 µM

====

system: TFEB; assay: TFEB nuclear translocation assay, HeLa wt cells; format: cell-based; settings: Homo sapiens, HeLa, 2 h, 2 hrs compound treatment, Table 1 does not say HeLa wt or TRPML1 KO
MEASURED_ATTRIBUTE: AC50

COMPOUND: CN(C)S(=O)(=O)c1ccc(S(=O)(=O)Nc2cccc(F)c2N2CCC(CN3C4COCC3C4)CC2)cc1
AC50: ≤ 2000 nM
//
COMPOUND: CN(C)S(=O)(=O)c1ccc(S(=O)(=O)Nc2ccccc2N2CCN(c3ccn(C(C)(C)C)n3)CC2)cc1
AC50: ≤ 2000 nM
//
COMPOUND: CN(C)S(=O)(=O)c1ccc(S(=O)(=O)Nc2ccccc2N2CCN(C3CC3)CC2)cc1
AC50: ≤ 2000 nM

What does the data say about its AC50? Entry: `CN(C)S(=O)(=O)c1ccc(S(=O)(=O)Nc2ccccc2N2CCN(c3ccc(Cl)cc3F)CC2)cc1`
≤ 2000 nM

Same thing, different compound: `CN(C)S(=O)(=O)c1ccc(S(=O)(=O)Nc2ccccc2N2CCC3(CCOCC3)CC2)cc1`
≤ 2000 nM
